TESTED_ON: Prostaglandin E synthase (Homo sapiens)
ASSAY: Inhibition of PGES1 in human A549 cell microsome assessed as PGE2 formation at 10 uM by cell-free assay relative to control
Set-up: scale not given: the % may be the effect or the level left
MEASUREMENT_KIND: Activity

Solved entries (count: 5):
{"MOLECULE": "CC(C)c1ccc2c(c1)c(SC(C)(C)C)c(CC(C)(C)C(=O)O)n2Cc1ccc(Cl)cc1", "TESTED_ON": "Prostaglandin E synthase (Homo sapiens)", "MEASUREMENT_KIND": "Activity", "RESULT": "26%"}
{"MOLECULE": "Cc1cccc(Nc2cc(Cl)nc(SC(C(=O)O)c3ccccc3)n2)c1C (stereo not given)", "TESTED_ON": "Prostaglandin E synthase (Homo sapiens)", "MEASUREMENT_KIND": "Activity", "RESULT": "74.6%"}
{"MOLECULE": "CCCCCCC(Sc1nc(Cl)cc(NCc2ccc3ncccc3c2)n1)C(=O)O (stereo not given)", "TESTED_ON": "Prostaglandin E synthase (Homo sapiens)", "MEASUREMENT_KIND": "Activity", "RESULT": "85.7%"}
{"MOLECULE": "CCCCCCC(Sc1nc(Cl)cc(NCCOc2ccccc2)n1)C(=O)O (stereo not given)", "TESTED_ON": "Prostaglandin E synthase (Homo sapiens)", "MEASUREMENT_KIND": "Activity", "RESULT": "79.9%"}
{"MOLECULE": "CCCCCCC(Sc1nc(Cl)cc(NCc2ccc(-c3ccccc3)cc2)n1)C(=O)O (stereo not given)", "TESTED_ON": "Prostaglandin E synthase (Homo sapiens)", "MEASUREMENT_KIND": "Activity", "RESULT": "21.8%"}

Looking up CCCCCCC(Sc1nc(Cl)cc(Nc2ccc(-c3ccc(C#N)cc3)cc2)n1)C(=O)O (stereo not given) , I found its Activity recorded as 26.1%

###

TESTED_ON: Prostaglandin G/H synthase 1 (Ovis aries) (UniProt P05979)
Sequence (whole entry): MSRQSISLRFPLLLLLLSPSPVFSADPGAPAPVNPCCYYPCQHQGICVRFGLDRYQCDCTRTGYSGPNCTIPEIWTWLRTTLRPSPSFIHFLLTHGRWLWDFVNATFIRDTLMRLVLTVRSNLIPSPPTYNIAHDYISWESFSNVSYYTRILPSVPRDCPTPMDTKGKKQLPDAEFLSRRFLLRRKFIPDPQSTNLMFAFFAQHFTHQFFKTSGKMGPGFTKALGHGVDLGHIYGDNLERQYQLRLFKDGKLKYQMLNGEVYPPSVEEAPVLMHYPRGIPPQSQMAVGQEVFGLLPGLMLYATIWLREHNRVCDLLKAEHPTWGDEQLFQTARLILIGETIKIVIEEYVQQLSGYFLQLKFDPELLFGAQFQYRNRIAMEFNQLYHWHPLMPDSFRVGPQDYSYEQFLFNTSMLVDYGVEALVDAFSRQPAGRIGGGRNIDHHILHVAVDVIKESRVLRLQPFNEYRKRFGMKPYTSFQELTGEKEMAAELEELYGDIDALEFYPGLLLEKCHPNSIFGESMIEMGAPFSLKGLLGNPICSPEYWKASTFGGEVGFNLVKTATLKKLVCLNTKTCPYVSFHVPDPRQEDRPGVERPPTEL
ASSAY: Inhibition of ovine COX1 assessed as remaining activity at 10 uM relative to control
MEASUREMENT_KIND: Activity (%)

Consider the following illustrative entries.
{"COMPOUND": "CCCCCCC(Sc1nc(Cl)cc(Nc2ccc(-c3ccc(C#N)cc3)cc2)n1)C(=O)O (centres undefined)", "UNIT_LABEL": "%", "Activity": 66}
{"COMPOUND": "CCCCCCC(Sc1nc(Cl)cc(Nc2cc(C)c(-c3ccccc3)cc2OC)n1)C(=O)O (centres undefined)", "UNIT_LABEL": "%", "Activity": 71.2}

1 = CCCCCCC(Sc1nc(Cl)cc(Nc2ccc3ncccc3c2)n1)C(=O)OCC (centres undefined)
2 = Cc1cccc(Nc2cc(Cl)nc(SC(C(=O)O)c3cccc4ccccc34)n2)c1C (centres undefined)
// returns 1 or 2 , whichever has the lower Activity // caller expects the label of the chosen entry 2

###

TESTED_ON: Prostaglandin E synthase (Homo sapiens, UniProt O14684)
Sequence (O14684 whole entry): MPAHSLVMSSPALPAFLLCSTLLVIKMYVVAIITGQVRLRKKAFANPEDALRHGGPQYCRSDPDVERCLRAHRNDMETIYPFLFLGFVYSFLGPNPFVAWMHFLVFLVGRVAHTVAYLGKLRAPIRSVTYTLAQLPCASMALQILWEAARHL
ASSAY: Inhibition of PGES1 in human A549 cell microsome assessed as PGE2 formation by cell-free assay
pIC50: −log10 of the molar value.
MEASUREMENT_KIND: pIC50

1 = CCCCCCC(Sc1nc(Cl)cc(Nc2ccc(-c3ccccc3)cc2)n1)C(=O)O (stereo not drawn)
2 = CCCCCCC(Sc1nc(Cl)cc(Nc2ccc3ncccc3c2)n1)C(=O)OCC (stereo not drawn)
Given the listed records, identify the one among 1 and 2 with higher pIC50. # respond with the chosen item's label 1

###

TESTED_ON: Prostaglandin E synthase (Homo sapiens)
ASSAY: Inhibition of PGES1 in human A549 cell microsome assessed as PGE2 formation at 10 uM by cell-free assay relative to control
Activity calls are given as the source filed them. The calls are words filed in the database; no cut-off is given here.
MEASUREMENT_KIND: Activity

{"COMPOUND": "CCCCC(Sc1nc(OCCc2ccccc2)cc(OCCc2ccccc2)n1)C(=O)OCC (configuration not stated)", "RESULT": "inactive"}
{"COMPOUND": "CCCCCCC(Sc1nc(Cl)cc(Nc2ccc(-c3ccccc3)cc2)n1)C(=O)O (configuration not stated)", "RESULT": "21.7%"}
{"COMPOUND": "Cc1cccc(Nc2cc(Cl)nc(SC(C)C(=O)O)n2)c1C (configuration not stated)", "RESULT": "inactive"}
{"COMPOUND": "CCCCCC[C@@H](Sc1nc(Cl)cc(Nc2ccc(-c3ccc(C#N)cc3)cc2)n1)C(=O)O", "RESULT": "36.8%"}
{"COMPOUND": "CCCCCCCCC(Sc1nc(Cl)cc(Nc2cccc(C)c2C)n1)C(=O)O (configuration not stated)", "RESULT": "29.8%"}
{"COMPOUND": "CCCCC(Sc1nc(OCCc2ccccc2)cc(OCCc2ccccc2)n1)C(=O)O (configuration not stated)", "RESULT": "43.1%"}

Field: next compound
Field Activity (entry CCCCCCC(Sc1nc(Cl)cc(Nc2cccc(C)c2C)n1)C(=O)O (configuration not stated) ) reads 31.9%

###

TESTED_ON: Polyunsaturated fatty acid 5-lipoxygenase (Homo sapiens) (UniProt P09917)
Sequence (P09917 whole entry): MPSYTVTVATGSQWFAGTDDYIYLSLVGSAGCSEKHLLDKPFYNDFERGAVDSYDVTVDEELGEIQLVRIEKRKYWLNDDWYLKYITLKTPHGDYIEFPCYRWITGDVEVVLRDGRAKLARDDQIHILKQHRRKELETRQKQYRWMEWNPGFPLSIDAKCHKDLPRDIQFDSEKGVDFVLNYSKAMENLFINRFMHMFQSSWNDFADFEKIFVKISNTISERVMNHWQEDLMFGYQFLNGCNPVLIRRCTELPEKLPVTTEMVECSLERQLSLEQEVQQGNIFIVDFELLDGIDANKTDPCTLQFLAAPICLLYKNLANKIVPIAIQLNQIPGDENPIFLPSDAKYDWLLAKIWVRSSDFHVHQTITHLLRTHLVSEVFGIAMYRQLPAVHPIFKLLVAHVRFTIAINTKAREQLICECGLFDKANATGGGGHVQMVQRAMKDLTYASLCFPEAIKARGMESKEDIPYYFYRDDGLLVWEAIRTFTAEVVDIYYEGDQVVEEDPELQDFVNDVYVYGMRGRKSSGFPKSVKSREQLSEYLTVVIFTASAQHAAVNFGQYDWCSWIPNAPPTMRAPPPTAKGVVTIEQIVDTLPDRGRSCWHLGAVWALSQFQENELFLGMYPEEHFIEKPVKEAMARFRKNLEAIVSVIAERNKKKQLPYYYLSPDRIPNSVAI
ASSAY: Inhibition of 5-LO in human PMNL cells at 10 uM relative to control
Type: cell-based
Set-up: scale not given: the % may be the effect or the level left
MEASUREMENT_KIND: Activity

Check out these entries, answers already filled in.
{"MOLECULE": "Cc1cccc(Nc2cc(Cl)nc(SC(C(=O)O)c3cccc4ccccc34)n2)c1C (configuration not stated)", "RESULT": "16.8%"}
{"MOLECULE": "CCCCCCC(Sc1nc(Cl)cc(Nc2ccc(-c3ccc(C#N)cc3)cc2)n1)C(=O)O (configuration not stated)", "RESULT": "2.7%"}
{"MOLECULE": "CCCCCCC(Sc1nc(Cl)cc(NCc2ccc(-c3ccccc3)cc2)n1)C(=O)OCC (configuration not stated)", "RESULT": "80.2%"}
{"MOLECULE": "CCCCCC[C@H](Sc1nc(Cl)cc(Nc2ccc(-c3ccc(C#N)cc3)cc2)n1)C(=O)O", "RESULT": "2.8%"}
{"MOLECULE": "CCCCCCC(Sc1nc(Cl)cc(Nc2cc(OCC(F)(F)F)cc(OCC(F)(F)F)c2)n1)C(=O)O (configuration not stated)", "RESULT": "8%"}

Lookup result for `O=C(O)CSc1nc(OCCc2ccccc2)cc(OCCc2ccccc2)n1` ; measured Activity: 40.6%

For reference, reported Activity for CCCCCCC(Sc1nc(Cl)cc(Nc2cc(C)c(-c3ccccc3)cc2OC)n1)C(=O)O (configuration not stated) stands at 3.1%

The recorded Activity for entry CCCCCCC(Sc1nc(Cl)cc(NCCc2ccccc2)n1)C(=O)O (configuration not stated) equals 16.1%

###

TESTED_ON: UniProt P09917
ASSAY: Inhibition of 5-LO in PMNL cells
Assay type: cell-based
MEASUREMENT_KIND: IC50 (nM)

{"COMPOUND": "CCCCCCC(Sc1nc(Cl)cc(NCc2ccc(-c3ccccc3)cc2)n1)C(=O)O (configuration not stated)", "IC50 / nM": 1000}
{"COMPOUND": "CCCCCCC(Sc1nc(Cl)cc(Nc2cc(C)c(-c3ccccc3)cc2OC)n1)C(=O)O (configuration not stated)", "IC50 / nM": 500}
{"COMPOUND": "CC(C)c1ccc2c(c1)c(SC(C)(C)C)c(CC(C)(C)C(=O)O)n2Cc1ccc(Cl)cc1", "IC50 / nM": 90}

a = Cc1cccc(Nc2cc(Cl)nc(SC(C(=O)O)c3cccc4ccccc34)n2)c1C (configuration not stated)
b = CCCCCCC(Sc1nc(Cl)cc(Nc2ccc(-c3ccccc3)cc2)n1)C(=O)O (configuration not stated)
Of a and b , which carries the smaller reported IC50 figure? State the label of the item chosen. b

I = CCCCCCC(Sc1nc(Cl)cc(Nc2ccc(-c3ccc(C#N)cc3)cc2)n1)C(=O)O (configuration not stated)
II = CCCCCCC(Sc1nc(Cl)cc(Nc2cc(OCC(F)(F)F)cc(OCC(F)(F)F)c2)n1)C(=O)O (configuration not stated)
Out of I and II , name the one with the higher IC50. Respond using the label that marks the chosen record. II
(II: 1500 nM, I: 400 nM)
